Entry source: ChEMBL document CHEMBL3991601

Target: ADP/ATP translocase 2 (Homo sapiens, UniProt P05141); note: in the data inactive means no Kd found up to 30 µM
Sequence (P05141 whole entry): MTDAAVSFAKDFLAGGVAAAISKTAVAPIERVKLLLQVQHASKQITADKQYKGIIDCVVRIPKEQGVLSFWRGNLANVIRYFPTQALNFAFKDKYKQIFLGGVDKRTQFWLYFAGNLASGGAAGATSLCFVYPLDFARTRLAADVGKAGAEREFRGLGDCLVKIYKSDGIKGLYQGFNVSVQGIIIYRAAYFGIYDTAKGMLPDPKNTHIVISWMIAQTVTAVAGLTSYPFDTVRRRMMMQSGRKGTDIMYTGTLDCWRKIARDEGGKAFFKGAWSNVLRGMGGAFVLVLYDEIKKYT
Calls of active or inactive are those of the source.
value_type: Kd

Could you tell me which Kd is on file for CCCS(=O)(=O)Nc1ccc(F)c(C(=O)c2c[nH]c3ncc(-c4ccc(Cl)cc4)cc23)c1F ?
> 30 µM (inactive)

Could you tell me which Kd is on file for Cc1cc(-c2cc(O)ccc2Cl)cc2nnc(Nc3ccc(OCCN4CCCC4)cc3)nc12 ?
> 30 µM (inactive)

Could you tell me which Kd is on file for CNC(=O)CN1CCC(Oc2cc3c(Nc4cccc(Cl)c4F)ncnc3cc2OC)CC1 ?
> 30 µM (inactive)

Could you tell me which Kd is on file for CCc1cnn2c(NCc3ccc[n+]([O-])c3)cc(N3CCCC[C@H]3CCO)nc12 ?
> 30 µM (inactive)

====

Target: Serine/threonine-protein kinase TAO3 (Homo sapiens, UniProt Q9H2K8); note: in the data inactive means no Kd found up to 30 µM
Sequence (Q9H2K8 whole entry): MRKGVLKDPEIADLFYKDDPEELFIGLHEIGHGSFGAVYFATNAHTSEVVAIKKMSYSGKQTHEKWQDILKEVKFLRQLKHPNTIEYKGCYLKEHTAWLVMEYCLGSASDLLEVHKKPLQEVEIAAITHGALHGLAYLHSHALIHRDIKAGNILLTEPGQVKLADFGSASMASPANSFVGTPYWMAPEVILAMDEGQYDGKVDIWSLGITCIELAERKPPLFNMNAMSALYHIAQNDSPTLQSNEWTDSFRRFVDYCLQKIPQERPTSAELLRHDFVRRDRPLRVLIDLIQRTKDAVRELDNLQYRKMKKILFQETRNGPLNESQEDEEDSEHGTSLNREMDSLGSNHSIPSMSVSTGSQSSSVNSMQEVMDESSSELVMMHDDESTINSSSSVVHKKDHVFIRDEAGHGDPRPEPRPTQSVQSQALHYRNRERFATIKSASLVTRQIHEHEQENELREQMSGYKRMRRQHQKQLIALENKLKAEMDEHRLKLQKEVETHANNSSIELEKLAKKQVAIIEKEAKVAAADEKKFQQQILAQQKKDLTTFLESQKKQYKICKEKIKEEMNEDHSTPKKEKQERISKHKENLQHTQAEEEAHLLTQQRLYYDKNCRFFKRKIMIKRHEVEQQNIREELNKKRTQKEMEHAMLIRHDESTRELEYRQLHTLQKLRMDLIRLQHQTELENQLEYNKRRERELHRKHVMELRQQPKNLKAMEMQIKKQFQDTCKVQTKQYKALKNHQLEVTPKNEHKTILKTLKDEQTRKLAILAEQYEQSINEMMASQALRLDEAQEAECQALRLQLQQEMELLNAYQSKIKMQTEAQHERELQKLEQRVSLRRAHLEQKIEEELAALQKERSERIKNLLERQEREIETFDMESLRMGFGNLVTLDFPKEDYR
Active and inactive are the calls of the source.
value_type: Kd

Could you tell me which Kd is on file for O=C(O)[C@]1(Cc2cccc(Nc3nccs3)n2)CC[C@@H](Oc2cccc(Cl)c2F)CC1 ?
> 30 µM (inactive)

Could you tell me which Kd is on file for OCCn1cc(-c2cnc3nnn(Cc4ccc5ncccc5c4)c3n2)cn1 ?
> 30 µM (inactive)

Could you tell me which Kd is on file for CO[C@H]1C[C@@H]2CC[C@@H](C)[C@@](O)(O2)C(=O)C(=O)N2CCCC[C@H]2C(=O)O[C@H]([C@H](C)C[C@@H]2CC[C@@H](OCCO)[C@H](OC)C2)CC(=O)[C@H](C)/C=C(\C)[C@@H](O)[C@@H](OC)C(=O)[C@H](C)C[C@H](C)/C=C/C=C/C=C/1C ?
> 30 µM (inactive)

Could you tell me which Kd is on file for CC[C@@H]1C(=O)N(C)c2cnc(Nc3ccc(C(=O)N[C@H]4CC[C@H](N5CCN(CC6CC6)CC5)CC4)cc3OC)nc2N1C(C)C ?
> 30 µM (inactive)

Could you tell me which Kd is on file for COC(=O)[C@@]1(O)C[C@H]2O[C@]1(C)n1c3ccccc3c3c4c(c5c6ccccc6n2c5c31)C(=O)NC4 [K-252A] ?
> 30 µM (inactive)

Could you tell me which Kd is on file for CCn1c(=O)c(-c2cc[nH]n2)cc2c(C)nc(N)nc21 ?
> 30 µM (inactive)

====

// Kd collected for Activated CDC42 kinase 1 (Homo sapiens)
Activity calls are given as the source filed them.

Could you tell me which Kd is on file for CCS(=O)(=O)N1CC(CC#N)(n2cc(-c3ncnc4[nH]ccc34)cn2)C1 [BARICITINIB] ?
> 30 µM (inactive)

Could you tell me which Kd is on file for C[C@@H](Nc1cc(F)cc(F)c1)c1cc(C(=O)N(C)C)cc2c(=O)cc(N3CCOCC3)oc12 [AZD-8186] ?
> 30 µM (inactive)

Could you tell me which Kd is on file for CCCS(=O)(=O)Nc1ccc(F)c(C(=O)c2c[nH]c3ncc(-c4ccc(Cl)cc4)cc23)c1F [VEMURAFENIB] ?
> 30 µM (inactive)

Could you tell me which Kd is on file for Cc1cc(-c2cc(O)ccc2Cl)cc2nnc(Nc3ccc(OCCN4CCCC4)cc3)nc12 ?
> 30 µM (inactive)

Could you tell me which Kd is on file for COc1cc2nccc(Oc3ccc(NC(=O)NC4CC4)c(Cl)c3)c2cc1C(N)=O [LENVATINIB] ?
> 30 µM (inactive)

Could you tell me which Kd is on file for CN1N=C(N)c2cn([C@@H]3O[C@H](COP(=O)(O)O)[C@@H](O)[C@H]3O)c3ncnc1c23 [TRICIRIBINE PHOSPHATE] ?
> 30 µM (inactive)

Could you tell me which Kd is on file for C[C@@H](c1ccc2nccn2c1)n1nnc2ncc(-c3cnn(C)c3)nc21 [SAVOLITINIB] ?
> 30 µM (inactive)

Could you tell me which Kd is on file for Cc1ccc(NC(=O)c2ccc(CN3CC[C@H](N(C)C)C3)c(C(F)(F)F)c2)cc1Nc1nccc(-c2cncnc2)n1 [BAFETINIB] ?
> 30 µM (inactive)
